Molecular target: Aurora B kinase (Homo sapiens)
Construct: 6×His-Aurora B/INCENP^(822–918); with INCENP^(822–918)
Sequence (Q96GD4 whole entry): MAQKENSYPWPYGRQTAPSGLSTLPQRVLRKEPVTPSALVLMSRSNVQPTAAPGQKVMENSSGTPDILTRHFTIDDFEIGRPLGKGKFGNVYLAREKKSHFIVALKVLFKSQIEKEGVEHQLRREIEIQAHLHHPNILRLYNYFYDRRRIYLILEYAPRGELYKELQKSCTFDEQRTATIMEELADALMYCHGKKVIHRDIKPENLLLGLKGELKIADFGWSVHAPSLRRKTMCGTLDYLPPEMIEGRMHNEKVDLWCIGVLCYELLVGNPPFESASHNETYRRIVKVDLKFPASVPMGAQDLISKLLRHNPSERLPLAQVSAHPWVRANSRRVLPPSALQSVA
Sequence (Q9NQS7 822-918 partner): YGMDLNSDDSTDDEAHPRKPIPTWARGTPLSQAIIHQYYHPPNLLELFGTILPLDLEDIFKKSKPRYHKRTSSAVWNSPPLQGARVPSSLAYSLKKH
Assay: in vitro […] kinase assay with recombinant complex (histone H3.[…] and MBP substrates); confirmed by IP kinase assay from HeLa lysates
pIC50: −log10 of the molar value.

{"Compound": "CC(=O)c1cnc2ccc(-c3cc(Cl)c(O)c(Cl)c3)nc2c1N[C@H]1CC[C@H](CN(C)C)CC1 [OTSSP167]", "pIC50": "~7.60"}
